# procedure-summary: in vivo
# conditions-used: male, Balb, Nu/Nu, mouse, plasma, po, 10 mg/kg
measurement-type: AUC (µM·h)

Examples with their reported AUC follow.
COc1ccc(-c2[nH]c(=O)c3cc(F)ccc3c2OCCN)cc1F.Cl [Compound 21]
10.5
Cc1cc(-c2[nH]c(=O)c3cc(F)ccc3c2OCCN)ccc1Cl.Cl [Compound 13]
10
Cl.NCCOc1c(-c2ccc(N3CCOCC3)c(Br)c2)[nH]c(=O)c2cc(F)ccc12 [Compound 4]
5.6

1 = Cl.NCCOc1c(-c2ccc(Cl)cc2)[nH]c(=O)c2cc(F)ccc12 [Compound 8]
2 = NCCOc1c(-c2ccc(Cl)c(Cl)c2)[nH]c(=O)c2cc(F)ccc12 [Compound 14]
Parameter metric = AUC. Return the lower-valued option from 1 and 2 . Kindly state the label of the option you pick. 1
(1: 7.5 µM·h, 2: 20.3 µM·h)

====

# conditions-used: mouse, 10 mg/kg, oral vs IV dose-normalized plasma AUC
measurement-type: F on AUC (%)

NCCOc1c(-c2ccc(Cl)c(Cl)c2)[nH]c(=O)c2cc(F)ccc12 [Compound 14]
136

a = Cl.NCCOc1c(-c2ccc(Br)cc2)[nH]c(=O)c2c(F)c(F)ccc12 [Compound 12]
b = Cl.NCCOc1c(-c2ccc(Cl)cc2)[nH]c(=O)c2cc(F)ccc12 [Compound 8]
Given the listed records, identify the one among a and b with higher F on AUC. Kindly state the label of the option you pick. a
(a: 109%, b: 74%)

A = Cc1cc(-c2[nH]c(=O)c3cc(F)ccc3c2OCCN)ccc1Cl.Cl [Compound 13]
B = Cl.NCCOc1c(-c2ccc(N3CCOCC3)c(Br)c2)[nH]c(=O)c2cc(F)ccc12 [Compound 4]
Parameter metric = F on AUC. Return the lower-valued option from A and B . Kindly state the label of the option you pick. B
(B: 83%, A: 128%)

====

# procedure-summary: in vivo
# conditions-used: male, Balb, Nu/Nu, mouse, plasma, po, 10 mg/kg
measurement-type: half-life (h)

Examples with their reported half-life follow.
Cl.NCCOc1c(-c2ccc(Br)cc2)[nH]c(=O)c2c(F)c(F)ccc12 [Compound 12]
1.77
NCCOc1c(-c2ccc(Cl)c(Cl)c2)[nH]c(=O)c2cc(F)ccc12 [Compound 14]
3.5
COc1ccc(-c2[nH]c(=O)c3cc(F)ccc3c2OCCN)cc1F.Cl [Compound 21]
3.9
Cl.NCCOc1c(-c2ccc(Br)cc2)[nH]c(=O)c2cc(F)ccc12 [Compound 1]
3.9
Cc1cc(-c2[nH]c(=O)c3cc(F)ccc3c2OCCN)ccc1Cl.Cl [Compound 13]
3

A = Cl.NCCOc1c(-c2ccc(Cl)cc2)[nH]c(=O)c2cc(F)ccc12 [Compound 8]
B = Cl.NCCOc1c(-c2ccc(N3CCOCC3)c(Br)c2)[nH]c(=O)c2cc(F)ccc12 [Compound 4]
Parameter metric = half-life. Return the lower-valued option from A and B . Kindly state the label of the option you pick. B
(B: 1.43 h, A: 3 h)

====

# procedure-summary: in vivo
# conditions-used: male, Balb, Nu/Nu, mouse, plasma, po, 10 mg/kg
measurement-type: Cmax (nM)

I = NCCOc1c(-c2ccc(Cl)c(Cl)c2)[nH]c(=O)c2cc(F)ccc12
II = COc1ccc(-c2[nH]c(=O)c3cc(F)ccc3c2OCCN)cc1F.Cl
Given the listed records, identify the one among I and II with higher Cmax. Kindly state the label of the option you pick. II
(II: 4600 nM, I: 2800 nM)

====

# procedure-summary: in vivo
# conditions-used: male, Balb, Nu/Nu, mouse, plasma, iv, 10 mg/kg
measurement-type: clearance (L/h/kg)

Examples with their reported clearance follow.
NCCOc1c(-c2ccc(Cl)c(Cl)c2)[nH]c(=O)c2cc(F)ccc12 [Compound 14]
1.23
Cl.NCCOc1c(-c2ccc(Br)cc2)[nH]c(=O)c2cc(F)ccc12 [Compound 1]
0.72
Cl.NCCOc1c(-c2ccc(N3CCOCC3)c(Br)c2)[nH]c(=O)c2cc(F)ccc12 [Compound 4]
2.67

I = COc1ccc(-c2[nH]c(=O)c3cc(F)ccc3c2OCCN)cc1F.Cl [Compound 21]
II = Cl.NCCOc1c(-c2ccc(Cl)cc2)[nH]c(=O)c2cc(F)ccc12 [Compound 8]
Parameter metric = clearance. Return the lower-valued option from I and II . Kindly state the label of the option you pick. II
(II: 1.69 L/h/kg, I: 2.72 L/h/kg)

====

# procedure-summary: in vivo
# conditions-used: male, Balb, Nu/Nu, mouse, plasma, iv, 10 mg/kg
measurement-type: Vd (L/kg)

Examples with their reported Vd follow.
Cl.NCCOc1c(-c2ccc(N3CCOCC3)c(Br)c2)[nH]c(=O)c2cc(F)ccc12
7.8
Cl.NCCOc1c(-c2ccc(Br)cc2)[nH]c(=O)c2c(F)c(F)ccc12
4.5
Cl.NCCOc1c(-c2ccc(Cl)cc2)[nH]c(=O)c2cc(F)ccc12
5.2
Cc1cc(-c2[nH]c(=O)c3cc(F)ccc3c2OCCN)ccc1Cl.Cl
5.7
Cl.NCCOc1c(-c2ccc(Br)cc2)[nH]c(=O)c2cc(F)ccc12
3.6

A = NCCOc1c(-c2ccc(Cl)c(Cl)c2)[nH]c(=O)c2cc(F)ccc12
B = COc1ccc(-c2[nH]c(=O)c3cc(F)ccc3c2OCCN)cc1F.Cl
Given the listed records, identify the one among A and B with higher Vd. Kindly state the label of the option you pick. B
(B: 6.5 L/kg, A: 4.2 L/kg)

====

# procedure-summary: in vivo
# conditions-used: male, Balb, Nu/Nu, mouse, plasma, po, 10 mg/kg
measurement-type: Cmax (nM)

Cl.NCCOc1c(-c2ccc(Br)cc2)[nH]c(=O)c2c(F)c(F)ccc12
3150
Cc1cc(-c2[nH]c(=O)c3cc(F)ccc3c2OCCN)ccc1Cl.Cl
2000
Cl.NCCOc1c(-c2ccc(N3CCOCC3)c(Br)c2)[nH]c(=O)c2cc(F)ccc12
3000
Cl.NCCOc1c(-c2ccc(Br)cc2)[nH]c(=O)c2cc(F)ccc12
6000
Cl.NCCOc1c(-c2ccc(Cl)cc2)[nH]c(=O)c2cc(F)ccc12
2850
